// cell viability lookup, one value per entry
# System: P12-Ichikawa
# Method Notes: cell viability relative to DMSO control; higher = less cytotoxic
# Recorded Conditions: HPLM + 10% dialyzed FBS; 48 h; 0.000781 µM

# Compound, cell viability
rows = [
    ("COC1=CC=C2C(=CC=NC2=C1)OC3=CC=C(NC(=O)\\C4=C(C)\\N(CC(C)(C)O)N(C4=O)C5=CC=CC=C5)C=C3F", "121%"),
    ("CC(C)c1ccc2oc3nc(N)c(C(=O)O)cc3c(=O)c2c1", "120%"),
    ("Cc1cnc(Nc2ccc(OCCN3CCCC3)cc2)nc1Nc1cccc([S+](=O)([O-])NC(C)(C)C)c1", "100%"),
    ("CCOc1ccccc1OCCNC(C)Cc1ccc(OC)c([S+](N)(=O)[O-])c1 (stereo not given)", "88.4%"),
    ("CC(C)(O)CNc1nc(Nc2ccnc(C(F)(F)F)c2)nc(-c2cccc(C(F)(F)F)n2)n1", "101%"),
    ("CN(C)c1nc(N(C)C)nc(N(C)C)n1", "108%"),
    ("CC(C)(Cc1ccc2ccccc2c1)NC[C@@H](O)COc1cccc(Cl)c1C#N", "123%"),
    ("C[C@@]12OC(=O)[C@@]1(NC(=O)[C@@H]2CCCl)[C@@H](O)[C@H]\\3CCC\\C=C3", "96.4%"),
    ("CCC(=O)O[C@@]1([C@H](C)C[C@H]2[C@@H]3C[C@H](F)\\C4=C\\C(=O)\\C=C/[C@]4(C)[C@@]3(F)[C@@H](O)C[C@]12C)C(=O)SCF", "101%"),
    ("CN(C)CCC=C1C2=C(C=CC=C2)\\C=C/C3=C1C=CC=C3", "109%"),
    ("O=P(O)(O)C(O)(Cc1cccnc1)P(=O)(O)[O][Na] (stereo not given)", "88.6%"),
    ("CCOC(=O)c1ccc(C#Cc2ccc3c(c2)C(C)(C)CCS3)nc1", "98.6%"),
    ("Nc1cccc(-c2cc3c(Oc4cccc(O)c4)ncnc3[nH]2)c1", "124%"),
    ("COc1ccc([C@@H]2CNC(=O)C2)cc1OC1CCCC1", "103%"),
    ("O=C(Oc1ccc([N+](=O)[O-])cc1)N1CCN(Cc2cccc(Oc3ccccc3)c2)CC1", "96.8%"),
    ("CC1(C)O[C@H]2CC(=O)OC[C@]23[C@H]2CC[C@@]4(C)[C@H](c5ccoc5)OC(=O)[C@H]5O[C@]54[C@]2(C)C(=O)C[C@@H]13", "95.9%"),
    ("CCCCOc1ccc(C(=O)Nc2ccc(F)cc2F)cc1", "83.2%"),
    ("CC1=CC2=C(O1)C(=C3OC(=O)\\C=C(C)/C3=C2)C", "105%"),
    ("O=C(NC1CC1)c1cccc(-c2ccc3c(NC(=O)C4CC4)n[nH]c3c2)c1", "109%"),
    ("Cn1cc(-c2ccncc2)c(-c2ccc(OCc3ccc4ccccc4n3)cc2)n1", "120%"),
]

---

# Test system: P12-Ichikawa
# Method Notes: cell viability relative to DMSO control; higher = less cytotoxic
# Recorded Conditions: HPLM + 10% dialyzed FBS; 48 h; 0.19 µM
Experimental Endpoint: cell viability (%)

# Molecule, Experimental Endpoint, Meas Value
data = [
    ("CCC(=O)O[C@@]1([C@H](C)C[C@H]2[C@@H]3C[C@H](F)\\C4=C\\C(=O)\\C=C/[C@]4(C)[C@@]3(F)[C@@H](O)C[C@]12C)C(=O)SCF", "cell viability", 64.8),
    ("COc1ccc2cccc(CCNC(C)=O)c2c1", "cell viability", 103),
    ("COc1ccc([C@@H]2CNC(=O)C2)cc1OC1CCCC1", "cell viability", 111),
    ("COC1=CC=C(C=C1)C/2=C/OC3=CC(=CC=C3C2=O)O", "cell viability", 111),
    ("COc1ccc(Cn2ccc3ccc(C(=O)NO)cc32)cc1", "cell viability", 123),
    ("CCOC(=O)c1ccc(C#Cc2ccc3c(c2)C(C)(C)CCS3)nc1", "cell viability", 118),
    ("O=C(Oc1ccc([N+](=O)[O-])cc1)N1CCN(Cc2cccc(Oc3ccccc3)c2)CC1", "cell viability", 112),
    ("CN1C(=O)COc2c(C(=O)NC3CN4CCC3CC4)cc(Cl)cc21 (stereo unspecified)", "cell viability", 109),
    ("COc1cc(/C=C/C(=O)CC(=O)/C=C/c2ccc(O)c(OC)c2)ccc1O", "cell viability", 105),
    ("N=C(N)c1ccc(OCCCCCOc2ccc(C(=N)N)cc2)cc1", "cell viability", 102),
    ("CC(=O)SCC(Cc1ccccc1)C(=O)NCC(=O)OCc1ccccc1 (stereo unspecified)", "cell viability", 102),
]
